tested on: Acinetobacter baumannii
Positions of bridges follow the written chain, without caps; N, C: chain ends. Non-standard residues stand in square brackets, D forms with d. Residues, ends and D or L forms follow the SMILES beside them. *: point of attachment. X6 = O=C(c1ccc(F)c(Cl)c1)*; Octanoyl = CCCCCCCC(=O)*; Dab = NCC[C@H](N)C(=O)O; Abu = CC[C@H](N)C(=O)O; Dap = NC[C@H](N)C(=O)O; X35 = O=C(Cc1ccccc1F)*
ENDPOINT NAME: Minimum inhibitory concentration, Ab A ATCC 17978 (µg/mL)
Use µg/mL as the unit, but write only the number.

These solved cases illustrate the format of a correct answer.
- COMPOUND: "CC[C@@H]1NC(=O)[C@@H](CC(C)C)NC(=O)[C@H](CCN)NC(=O)[C@@H](NC(=O)[C@H](CN)NC(=O)[C@@H](NC(=O)[C@H](CCN)NC(=O)c2ccc(F)c(Cl)c2)[C@@H](C)O)CCNC(=O)[C@H]([C@@H](C)O)NC(=O)[C@H](CCN)NC(=O)[C@H](CCN)NC1=O [Compound 110] (X6-[Dab]T[Dap][Dab][Dab][dL][Abu][Dab][Dab]T; lactam 4-C)"
  TARGET OR TEST SYSTEM: "Acinetobacter baumannii"
  UNITS SYMBOL: "µg/mL"
  RESULT NUMBER: 0.5
- COMPOUND: "CC[C@@H]1NC(=O)[C@@H](CC(C)C)NC(=O)[C@H](CCN)NC(=O)[C@@H](NC(=O)[C@H](CN)NC(=O)[C@@H](NC(=O)[C@H](CCN)NC(=O)Cc2ccccc2F)[C@@H](C)O)CCNC(=O)[C@H]([C@@H](C)O)NC(=O)[C@H](CCN)NC(=O)[C@H](CCN)NC1=O [Compound 85] (X35-[Dab]T[Dap][Dab][Dab][dL][Abu][Dab][Dab]T; lactam 4-C)"
  TARGET OR TEST SYSTEM: "Acinetobacter baumannii"
  UNITS SYMBOL: "µg/mL"
  RESULT NUMBER: 2

// next entry
Prompt: So what does the record say about Minimum inhibitory concentration, Ab A ATCC 17978 for CCCCCCCC(=O)N[C@@H](CN)C(=O)N[C@H](C(=O)N[C@@H](CN)C(=O)N[C@H]1CCNC(=O)[C@H]([C@@H](C)O)NC(=O)[C@H](CCN)NC(=O)[C@H](CCN)NC(=O)[C@H]([C@@H](C)O)NC(=O)[C@@H](CC(C)C)NC(=O)[C@H](CCN)NC1=O)[C@@H](C)O [Compound 48] (Octanoyl-[Dap]T[Dap][Dab][Dab][dL]T[Dab][Dab]T; lactam 4-C) ?
Response: 1
